Would you mind telling me the reported apparent KD of MS2 coat protein of each entry?
Tested on: MS2 coat protein
Experiment: apparent KD of MS2 coat protein; designed switch direction (-1 OFF switch, 1 ON switch): -1; higher = weaker reporter binding
Conditions: Eterna round: R95; input ligand: microRNA oligo, concentration not stated
Your answer should be a plain number; it is taken to be in nM.

Query block: Which measured apparent KD of MS2 coat protein value corresponds to GGUUGGCGAGGAUAUACAUGAGGAUCACCCAUGUGAGAGAAAAAAGUGCGGAAGAAAAGUAGAAGGCGCUGACG [salish99_ex3_r3_029] (puzzle: Exclusion 3) ?
Result block: 25.1

Query block: Thanks! And GGAGAGGGAGGAUAUGCGCCAACAAACAUGAGGAUCACCCAUGUGGUGCUCCAAGAAAGGGUAGAAGGCCCUCUCC [Default title] (puzzle: Exclusion 5) ?
Result block: 275

Query block: Follow-up entry: GUGUAGAUAGGAUAUACAUGAGUCUAGCGAAGCUAGAUUCUACAUGAGGAUCACCCAUGUAGAAGGGUCUACAC [Fiskers Ex 2 - 28] (puzzle: Exclusion 2)
Result block: 14.3

Query block: Would you mind doing AGGGAUAAAGGAUAUACAUGAGGAUCACCCAUGUUGAGGAAAGUUAGAUGAGGAGGAAGUAGAAGGUUAGACGA [JR_Exclu3_Sub087] (puzzle: Exclusion 3) as well?
Result block: 35.4

Query block: Try the sequence UGGGUUACCCAUGGAAGUAACAUGAGGAUCACCCAUGUAGGGCAAGUUUUUUGUUCGUCAUAGGCCGUGGGUUUGGA [JR_SV3TOV1_Sub021] (puzzle: Sensor v3, turn-off variant 1)
Result block: 56.8

Query block: Please answer likewise for AAAUCCGCUGAGGAUAUUAUGAGUGAGAGCUCAUGAGAAGGCGGUACAUGAGGAUCACCCAUGUCUAUGGGCAA [Ex-6 Malc#26] (puzzle: Exclusion 6)
Result block: 329

Query block: Next: UUUAAAACAUAGGAUAUCGAAUUAAUCAUUUAACGAGAAGGAUGAACAUGAGGAUCACCCAUGUGGUAUCAUGG [Mat - Exclusion 6 - JL Mod - D19] (puzzle: Exclusion 6)
Result block: 274

Query block: Another sequence to check: UUUUAGUCAGGAUAUACAUUUUUUUAAUUAUUUAUAAUAUUACAUGAGGAUCACCCAUGUAGAAGGGACAUUUU [My Design] (puzzle: Exclusion 2)
Result block: 28.6

Query block: Then this sequence: GAUAGAGAGCAGGAUAUCUUGGGUAAGUGUUGUAGAGAAGGGCUCACAUGAGGAUCACCCAUGUGGUCCUAGAU [JL Dibiri mod 08] (puzzle: Exclusion 6)
Result block: 14.5

Query block: Okay, and GGUGCGUAUGUGAGGAUAUGCUGGUCCUUGGGUCGGCAGAAGGCACAUGAGGAUCACCCAUGUGGUGUCGUUCC [salish99_Bmod_ex4_101] (puzzle: Brourd's mod of Exclusion 4) ?
Result block: 68

Query block: What do you get for AGUACUAACACGAGAGUGUUAGUACUAUAAGCUUGUGAAACAUGAGGAUCACCCAUGUCCUCAUAAGCUCGUCUUAU [Mat - Sensor v3 - Turn-off var 2 - D103] (puzzle: Sensor v3, turn-off variant 2) ?
Result block: 682

Query block: Same question for GUAUCGUGAGGAUAUCAUGAUUGACUUAGUUUAUGUCAGCGUGAGAAGGCACAUGAGGAUCACCCAUGUGAUUA [Ex4 - 3 - 7] (puzzle: Exclusion 4) please.
Result block: 23.1

Query block: Quick one: ACCAAGCUAGGAUAUGCUUGGGCUCAAAUAAAUAAACACAAACAUGAGGAUCACCCAUGUAGAAGGAGCUUGCU [Zaabiquer] (puzzle: Exclusion 2)
Result block: 12.6

Query block: # repeat for CGGAGCAGAGGGAGAUCCAACAUGAGGAUCACCCAUGUCUCACAAGCUUUUUGCUCGUCUUAUUGUACCUUGGUGCU [JL ViennaUCT Edcesobi mod 7] (puzzle: Sensor v3, turn-off variant 1)
Result block: 11.1

Query block: Same again, this time with GAAAAGGUAGGAUAUACGAAAAAAAAGGGUAGAAGAAAAACACAUGAGGAUCACCCAUGUAGAAGGACCAAAAG [salish99_ex2_r3_022] (puzzle: Exclusion 2)
Result block: 18.6

Query block: What would you report for AAGAGGUCAGGAUAUACGGGAAGAGGGAGAAGUAGAGGGUAACAUGAGGAUCACCCAUGUAGAAGGGACUAAGA [JR_Exclu2_Sub073] (puzzle: Exclusion 2) ?
Result block: 26.4

Query block: Please give the result for AGAGAUGCCCAUGGCCGCAAGCUUUUUGCUUGUCUUACCACAUGAGGAUCACCCAUGUGACAUGGGCUCCUUAUAAU [Essoator] (puzzle: Sensor v3, turn-off variant 2) too.
Result block: 9.99

Query block: Same question, CCUCUACAUGAGGAUCACCCAUGUGAGGAUAUCUCGGAGCAGCCACUUAAAGCACUCCAGAGAAGGCACGUGUA [Mavemain] (puzzle: Exclusion 1) this time
Result block: 15.5

Query block: Similarly, AUACCACGAGGAUAUCGUCUAUAAUACAUGAGGAUCACCCAUGUUAUAUCUGUAAUGUUUCGAGAAGGCGUGUGUU [JR_E5_Sub084] (puzzle: Exclusion 5) ?
Result block: 17.9

Query block: Another sequence to look at: CAAAACAGAGGAUAUACAUUUCCUCACCGCCAAAUGGCGGAACAUGAGGAUCACCCAUGUAGAAGGCUGGAAAA [Gesous] (puzzle: Exclusion 2)
Result block: 114

Query block: Thanks! And AAUUAAACAUAGGAUAUCGAAUUUAUUAUUUAACGAGAAGGAUGAACAUGAGGAUCACCCAUGUGGUAUCAUGG [Mat - Exclusion 6 - JL Mod - D23] (puzzle: Exclusion 6) ?
Result block: 197
